This collection of values is drawn from patent US6780994B2.

study target: α1b-AR (Homo sapiens, UniProt P35368)
Construct: expressed in transfected cells; host or cells: COS cells, pcDNA3 vector, transient DEAE-dextran transfection
Sequence (P35368 whole entry): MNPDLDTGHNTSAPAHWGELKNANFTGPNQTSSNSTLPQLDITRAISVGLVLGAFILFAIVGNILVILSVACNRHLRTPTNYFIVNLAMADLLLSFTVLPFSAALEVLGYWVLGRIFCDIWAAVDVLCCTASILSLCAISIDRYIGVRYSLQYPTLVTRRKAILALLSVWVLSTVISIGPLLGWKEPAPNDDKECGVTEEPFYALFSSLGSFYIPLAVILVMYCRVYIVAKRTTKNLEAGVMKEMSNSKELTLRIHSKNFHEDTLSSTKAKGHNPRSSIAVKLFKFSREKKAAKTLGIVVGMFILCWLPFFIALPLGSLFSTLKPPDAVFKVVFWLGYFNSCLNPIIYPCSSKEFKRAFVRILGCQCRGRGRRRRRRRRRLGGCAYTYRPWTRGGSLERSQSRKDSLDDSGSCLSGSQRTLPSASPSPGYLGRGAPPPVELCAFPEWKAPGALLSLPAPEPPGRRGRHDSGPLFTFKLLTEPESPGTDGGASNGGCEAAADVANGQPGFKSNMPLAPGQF
experimental protocol: radioligand ([125I]-HEAT) receptor binding assay, COS cell membranes expressing cloned receptor
study conditions: [125I]-HEAT 50 pM, 1 hour room temperature
pIC50: −log10 of the molar value.
attribute measured: pIC50

Query string: Which pIC50 is reported for this molecule? COc1ccccc1N1C(=O)c2ccc(C(=O)NCC(O)CN3CCN(c4ccccc4OC(C)C)CC3)cc2C1=O (stereo not shown)
Result string: 5.79

Query string: Can you handle "CC(C)Oc1ccccc1N1CCN(C[C@@H](O)CNC(=O)c2ccc3c(c2)C(=O)N(c2ccc(N(C)C)cc2)C3=O)CC1" next?
Result string: < 5.70

Query string: Try the molecule CC(C)Oc1ccccc1N1CCN(CC(O)CNC(=O)c2ccc3c(c2)C(=O)N(c2ccc([N+](=O)[O-])cc2)C3=O)CC1 (stereo not shown)
Result string: < 5.70

Query string: Another: Cc1cccc(N2C(=O)c3ccc(C(=O)NCC(O)CN4CCN(c5ccccc5OC(C)C)CC4)cc3C2=O)c1 (stereo not shown)
Result string: < 5.70

Query string: Consider next the molecule "COc1ccc(N2C(=O)c3ccc(C(=O)NCCCN4CCN(c5ccccc5OC(C)C)CC4)cc3C2=O)cc1" in the same way.
Result string: 6.44

Query string: Moving on to CC(C)Oc1ccccc1N1CCN(CC(O)CNC(=O)c2ccc3c(c2)C(=O)N(c2cc(F)cc(F)c2)C3=O)CC1 (stereo not shown)
Result string: 6.05

Query string: What do you have for CC(=O)c1ccc(N2C(=O)c3ccc(C(=O)NCC(O)CN4CCN(c5ccccc5OC(C)C)CC4)cc3C2=O)cc1 (stereo not shown) ?
Result string: < 5.70

Query string: Same again, this time with CC(C)Oc1ccccc1N1CCN(CC(O)CNC(=O)c2ccc3c(c2)C(=O)N(c2cccc(F)c2)C3=O)CC1 (racemic)
Result string: 5.74

Query string: Try Cc1ccc(N2C(=O)c3ccc(C(=O)NCC(O)CN4CCN(c5ccccc5OC(C)C)CC4)cc3C2=O)cc1 (stereo not shown) next.
Result string: < 5.70

Query string: Another: CC(C)Oc1ccccc1N1CCN(CC(O)CNC(=O)c2ccc3c(c2)C(=O)N(c2cccnc2)C3=O)CC1 (stereo not shown)
Result string: < 5.70

Query string: For CCOc1ccccc1N1CCN(CC(O)CNC(=O)c2ccc3c(c2)C(=O)N(c2cccc(F)c2)C3=O)CC1 (stereo not shown) then?
Result string: < 5.70

Query string: // query: CC(C)Oc1ccccc1N1CCN(CC(O)CNC(=O)c2ccc3c(c2)C(=O)N(c2ccc(O)cc2)C3=O)CC1 (single isomer, unassigned)
Result string: < 5.70

Query string: Field entry: "Cc1ccc(N2C(=O)c3ccc(C(=O)NCCCN4CCN(c5ccccc5OC(C)C)CC4)cc3C2=O)cc1"
Result string: < 5.70

Query string: Another molecule to check: CC(C)Oc1ccccc1N1CCN(CC(O)CNC(=O)c2ccc3c(c2)C(=O)N(c2cccc(C(F)(F)F)c2)C3=O)CC1 (stereo not shown)
Result string: < 5.70

Query string: Again, but for COc1ccc(N2C(=O)c3ccc(C(=O)NCC(O)CN4CCN(c5ccccc5OC(C)C)CC4)cc3C2=O)cc1OC (stereo not shown)
Result string: < 5.70

Query string: Try the molecule COC(CNC(=O)c1ccc2c(c1)C(=O)N(c1cccc(F)c1)C2=O)CN1CCN(c2ccccc2OC(C)C)CC1 (stereo not shown)
Result string: < 5.70
